The measurements presented in this section are drawn from ChEMBL document CHEMBL2439995.

Provide the recorded ΔTm for the entries that follow.
- Assay Procedure: Binding affinity to F-c-KIT2-T G-quadruplex DNA (unknown origin) assessed as change in melting temperature at 5 uM by FRET assay
Kindly answer with a numeric value in °C, unit omitted.

Query :: Returns the measured ΔTm for the input compound. Input: CN(C)CCNC(=O)c1ccc(/C=C/c2nc3cc(N4CCN(C)CC4)c(F)cc3c(=O)n2-c2ccccc2)cc1
Result :: 15.9

Query :: Returns the measured ΔTm for the input compound. Input: CN1CCN(c2cc3nc(/C=C/c4ccc(NC(=O)CCN5CCCC5)cc4)n(-c4ccccc4)c(=O)c3cc2F)CC1
Result :: 12.4

Query :: Returns the measured ΔTm for the input compound. Input: CCN(CC)CCNC(=O)c1ccc(/C=C/c2nc3cc(N4CCN(C)CC4)c(F)cc3c(=O)n2-c2ccccc2)cc1
Result :: 14.3

Query :: Returns the measured ΔTm for the input compound. Input: CCN(CC)CC(=O)Nc1ccc(/C=C/c2nc3cc(N4CCN(C)CC4)c(F)cc3c(=O)n2-c2ccccc2)cc1
Result :: 7.8

Query :: Returns the measured ΔTm for the input compound. Input: CN1CCN(c2cc3nc(/C=C/c4ccc(C(=O)NCCCN5CCCC5)cc4)n(-c4ccccc4)c(=O)c3cc2F)CC1
Result :: 16.8

Query :: Returns the measured ΔTm for the input compound. Input: CN1CCN(c2cc3nc(/C=C/c4ccc(NC(=O)CN5CCCC5)cc4)n(-c4ccccc4)c(=O)c3cc2F)CC1
Result :: 9.4

Query :: Returns the measured ΔTm for the input compound. Input: CCN(CC)CCC(=O)Nc1ccc(/C=C/c2nc3cc(N4CCN(C)CC4)c(F)cc3c(=O)n2-c2ccccc2)cc1
Result :: 13.6

Query :: Returns the measured ΔTm for the input compound. Input: CN1CCN(c2cc3nc(/C=C/c4ccc(NC(=O)CCN5CCCCC5)cc4)n(-c4ccccc4)c(=O)c3cc2F)CC1
Result :: 12.6

Query :: Returns the measured ΔTm for the input compound. Input: CN1CCN(c2cc3nc(/C=C/c4ccc(C(=O)NCCN5CCCC5)cc4)n(-c4ccccc4)c(=O)c3cc2F)CC1
Result :: 13.4

Query :: Returns the measured ΔTm for the input compound. Input: CN1CCN(c2cc3nc(/C=C/c4ccc(NC(=O)CN5CCCCC5)cc4)n(-c4ccccc4)c(=O)c3cc2F)CC1
Result :: 7.5

====

- Assay Procedure: Binding affinity to F10T duplex DNA (unknown origin) assessed as change in melting temperature at 5 uM by FRET assay
Provide the recorded ΔTm for the entries that follow.
Kindly answer with a numeric value in °C, unit omitted.

Query :: Returns the measured ΔTm for the input molecule. Input: CN1CCN(c2cc3nc(/C=C/c4ccc(NC(=O)CCN5CCCCC5)cc4)n(-c4ccccc4)c(=O)c3cc2F)CC1
Result :: 0

Query :: Returns the measured ΔTm for the input molecule. Input: CN(C)CCNC(=O)c1ccc(/C=C/c2nc3cc(N4CCN(C)CC4)c(F)cc3c(=O)n2-c2ccccc2)cc1
Result :: 0.5

Query :: Returns the measured ΔTm for the input molecule. Input: CN1CCN(c2cc3nc(/C=C/c4ccc(NC(=O)CCN5CCCC5)cc4)n(-c4ccccc4)c(=O)c3cc2F)CC1
Result :: 0

Query :: Returns the measured ΔTm for the input molecule. Input: CCN(CC)CC(=O)Nc1ccc(/C=C/c2nc3cc(N4CCN(C)CC4)c(F)cc3c(=O)n2-c2ccccc2)cc1
Result :: 0

Query :: Returns the measured ΔTm for the input molecule. Input: CN1CCN(c2cc3nc(/C=C/c4ccc(NC(=O)CN5CCCC5)cc4)n(-c4ccccc4)c(=O)c3cc2F)CC1
Result :: 0

Query :: Returns the measured ΔTm for the input molecule. Input: CN1CCN(c2cc3nc(/C=C/c4ccc(C(=O)NCCCN5CCCC5)cc4)n(-c4ccccc4)c(=O)c3cc2F)CC1
Result :: 0.4

Query :: Returns the measured ΔTm for the input molecule. Input: CN1CCN(c2cc3nc(/C=C/c4ccc(C(=O)NCCN5CCCC5)cc4)n(-c4ccccc4)c(=O)c3cc2F)CC1
Result :: 0.4

Query :: Returns the measured ΔTm for the input molecule. Input: CCN(CC)CCNC(=O)c1ccc(/C=C/c2nc3cc(N4CCN(C)CC4)c(F)cc3c(=O)n2-c2ccccc2)cc1
Result :: 0.4

Query :: Returns the measured ΔTm for the input molecule. Input: CN1CCN(c2cc3nc(/C=C/c4ccc(NC(=O)CN5CCCCC5)cc4)n(-c4ccccc4)c(=O)c3cc2F)CC1
Result :: 0.1

Query :: Returns the measured ΔTm for the input molecule. Input: CCN(CC)CCC(=O)Nc1ccc(/C=C/c2nc3cc(N4CCN(C)CC4)c(F)cc3c(=O)n2-c2ccccc2)cc1
Result :: 0

====

- System: HGC-27
- Assay Procedure: Cytotoxicity against HGC27 cells assessed as cell viability after 48 hrs by MTT assay
- Type: functional, cell-based
- Applied Conditions: Homo sapiens, HGC-27, 48 h
Recorded Endpoint: IC50 (nM)
Kindly answer with a numeric value in nM, unit omitted.

Query :: Returns the measured IC50 for the input compound. Input: CCN(CC)CCNC(=O)c1ccc(/C=C/c2nc3cc(N4CCN(C)CC4)c(F)cc3c(=O)n2-c2ccccc2)cc1
Result :: 8600

Query :: Returns the measured IC50 for the input compound. Input: CN1CCN(c2cc3nc(/C=C/c4ccc(NC(=O)CN5CCCC5)cc4)n(-c4ccccc4)c(=O)c3cc2F)CC1
Result :: 2300

Query :: Returns the measured IC50 for the input compound. Input: CN1CCN(c2cc3nc(/C=C/c4ccc(NC(=O)CN5CCCCC5)cc4)n(-c4ccccc4)c(=O)c3cc2F)CC1
Result :: 1300
